Below, each of the binders is paired with its reported OD450 value.
STUDY TARGET: Peptide 5: Biotin-…-[Tyr(PC)]-acid
Sequence (peptide, as listed by the source): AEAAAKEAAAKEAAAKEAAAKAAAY
PROTOCOL SUMMARY: scFv ELISA
Kindly answer with a numeric value in OD450, unit omitted.

Known OD450 results, listed for orientation:
PcOxP_DB04_C10 (scFv, V domains shown, scFv in periplasmic extract) VH: EVQLLESGGGLVQPGGSLRLSCAASGFTFSDGYMEWVRQAPGKGLEWVAAIRNKANDYTTEYADSVKGRFTISRDNSKNTLYLQMNSLRAEDTAVYYCARDYYGSHYWYFDVWGQGTLVTVSS VL: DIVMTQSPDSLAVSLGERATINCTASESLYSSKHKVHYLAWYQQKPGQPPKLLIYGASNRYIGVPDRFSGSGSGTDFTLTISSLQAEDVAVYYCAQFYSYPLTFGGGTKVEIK    1.03
PcOxP_DB02_F04 (scFv, V domains shown, scFv in periplasmic extract) VH: EVQLLESGGGLVQPGGSLRLSCAASGFTGSDFYMEWVRQAPGKGLEWVAASRNSGNSYTTAYADSVKGRFTISRDNSKNTLYLQMNSLRAEDTAVYYCARDYFGSSYWYFDVWGQGTLVTVSS VL: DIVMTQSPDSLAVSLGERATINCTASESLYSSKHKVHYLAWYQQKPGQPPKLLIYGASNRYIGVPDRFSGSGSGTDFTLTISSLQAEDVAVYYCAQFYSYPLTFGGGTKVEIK    0.74

Field request: OD450 | item: PcOxP_DB02_G07 (scFv, V domains shown, scFv in periplasmic extract) VH: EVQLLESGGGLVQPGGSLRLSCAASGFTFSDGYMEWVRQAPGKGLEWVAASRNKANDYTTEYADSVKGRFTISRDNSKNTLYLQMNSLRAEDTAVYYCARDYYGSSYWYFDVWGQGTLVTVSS VL: DIQMTQSPSSLSASVGDRVTITCTASESLYSSKHKVHYLAWYQQKPGKAPKLLIYGASNRYGGVPSRFSGSGSGTDFTLTISSLQPEDFATYYCAQFYSYPLTFGGGTKVEIK
0.99

The reported measurements were obtained from patent US20250320312A1.
